Reported Kd values for the following compounds.
- assayed.system: ROCK1 (Homo sapiens)
- Sequence (Q13464 whole entry): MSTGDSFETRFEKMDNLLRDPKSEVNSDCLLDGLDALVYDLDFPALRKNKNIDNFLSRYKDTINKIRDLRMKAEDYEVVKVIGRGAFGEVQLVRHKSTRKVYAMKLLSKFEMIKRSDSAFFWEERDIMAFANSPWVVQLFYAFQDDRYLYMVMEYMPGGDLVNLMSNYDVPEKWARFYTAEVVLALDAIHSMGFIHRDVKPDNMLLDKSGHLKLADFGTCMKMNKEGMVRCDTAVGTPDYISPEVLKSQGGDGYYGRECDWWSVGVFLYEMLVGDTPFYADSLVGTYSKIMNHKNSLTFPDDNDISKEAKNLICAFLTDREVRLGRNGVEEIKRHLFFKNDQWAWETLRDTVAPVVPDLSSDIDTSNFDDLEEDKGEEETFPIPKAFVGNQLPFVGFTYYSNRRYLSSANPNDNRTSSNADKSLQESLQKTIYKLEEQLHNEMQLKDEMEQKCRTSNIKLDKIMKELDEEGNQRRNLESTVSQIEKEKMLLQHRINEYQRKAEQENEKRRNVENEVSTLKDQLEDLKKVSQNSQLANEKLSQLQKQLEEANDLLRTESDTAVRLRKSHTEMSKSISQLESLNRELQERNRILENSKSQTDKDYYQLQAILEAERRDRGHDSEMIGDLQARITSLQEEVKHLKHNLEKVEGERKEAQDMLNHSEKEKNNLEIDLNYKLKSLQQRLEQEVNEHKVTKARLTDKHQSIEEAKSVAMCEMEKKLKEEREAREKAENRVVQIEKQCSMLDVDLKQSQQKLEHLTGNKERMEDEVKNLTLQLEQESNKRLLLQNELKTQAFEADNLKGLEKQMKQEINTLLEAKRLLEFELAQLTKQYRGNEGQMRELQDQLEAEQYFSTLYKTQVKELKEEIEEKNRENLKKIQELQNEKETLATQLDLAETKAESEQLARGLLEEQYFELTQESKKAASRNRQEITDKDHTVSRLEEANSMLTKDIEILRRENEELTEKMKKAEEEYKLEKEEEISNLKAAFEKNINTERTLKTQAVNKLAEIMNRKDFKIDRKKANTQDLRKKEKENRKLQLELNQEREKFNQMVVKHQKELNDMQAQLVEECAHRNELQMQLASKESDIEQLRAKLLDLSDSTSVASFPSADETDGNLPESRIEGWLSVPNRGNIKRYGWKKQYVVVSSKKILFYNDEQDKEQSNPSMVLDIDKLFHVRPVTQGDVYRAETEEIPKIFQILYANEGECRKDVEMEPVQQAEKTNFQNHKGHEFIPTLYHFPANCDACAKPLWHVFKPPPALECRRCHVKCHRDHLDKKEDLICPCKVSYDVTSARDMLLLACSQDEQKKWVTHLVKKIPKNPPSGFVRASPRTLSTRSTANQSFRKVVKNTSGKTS
- assay.explanation: KINOMEscan competition binding
- Design: purchased Eurofins DiscoverX (KINOMEscan)
- measurement.conditions: Eurofins DiscoveRx, Table 1; read-out: ROCK1 Kd
Report the figure in µM without appending any unit label.

CC1(C)Oc2cc3oc(=O)ccc3cc2C[C@@H]1O [DOH, decursinol]
7.5

Okay, now this compound:
Notebook: C/C=C(/C)C(=O)O[C@H]1Cc2cc3ccc(=O)oc3cc2OC1(C)C [DA, decursinol angelate] , Kd read as 2.1

###

- assayed.system: ROCK2 (Homo sapiens, UniProt O75116)
- Sequence (O75116 whole entry): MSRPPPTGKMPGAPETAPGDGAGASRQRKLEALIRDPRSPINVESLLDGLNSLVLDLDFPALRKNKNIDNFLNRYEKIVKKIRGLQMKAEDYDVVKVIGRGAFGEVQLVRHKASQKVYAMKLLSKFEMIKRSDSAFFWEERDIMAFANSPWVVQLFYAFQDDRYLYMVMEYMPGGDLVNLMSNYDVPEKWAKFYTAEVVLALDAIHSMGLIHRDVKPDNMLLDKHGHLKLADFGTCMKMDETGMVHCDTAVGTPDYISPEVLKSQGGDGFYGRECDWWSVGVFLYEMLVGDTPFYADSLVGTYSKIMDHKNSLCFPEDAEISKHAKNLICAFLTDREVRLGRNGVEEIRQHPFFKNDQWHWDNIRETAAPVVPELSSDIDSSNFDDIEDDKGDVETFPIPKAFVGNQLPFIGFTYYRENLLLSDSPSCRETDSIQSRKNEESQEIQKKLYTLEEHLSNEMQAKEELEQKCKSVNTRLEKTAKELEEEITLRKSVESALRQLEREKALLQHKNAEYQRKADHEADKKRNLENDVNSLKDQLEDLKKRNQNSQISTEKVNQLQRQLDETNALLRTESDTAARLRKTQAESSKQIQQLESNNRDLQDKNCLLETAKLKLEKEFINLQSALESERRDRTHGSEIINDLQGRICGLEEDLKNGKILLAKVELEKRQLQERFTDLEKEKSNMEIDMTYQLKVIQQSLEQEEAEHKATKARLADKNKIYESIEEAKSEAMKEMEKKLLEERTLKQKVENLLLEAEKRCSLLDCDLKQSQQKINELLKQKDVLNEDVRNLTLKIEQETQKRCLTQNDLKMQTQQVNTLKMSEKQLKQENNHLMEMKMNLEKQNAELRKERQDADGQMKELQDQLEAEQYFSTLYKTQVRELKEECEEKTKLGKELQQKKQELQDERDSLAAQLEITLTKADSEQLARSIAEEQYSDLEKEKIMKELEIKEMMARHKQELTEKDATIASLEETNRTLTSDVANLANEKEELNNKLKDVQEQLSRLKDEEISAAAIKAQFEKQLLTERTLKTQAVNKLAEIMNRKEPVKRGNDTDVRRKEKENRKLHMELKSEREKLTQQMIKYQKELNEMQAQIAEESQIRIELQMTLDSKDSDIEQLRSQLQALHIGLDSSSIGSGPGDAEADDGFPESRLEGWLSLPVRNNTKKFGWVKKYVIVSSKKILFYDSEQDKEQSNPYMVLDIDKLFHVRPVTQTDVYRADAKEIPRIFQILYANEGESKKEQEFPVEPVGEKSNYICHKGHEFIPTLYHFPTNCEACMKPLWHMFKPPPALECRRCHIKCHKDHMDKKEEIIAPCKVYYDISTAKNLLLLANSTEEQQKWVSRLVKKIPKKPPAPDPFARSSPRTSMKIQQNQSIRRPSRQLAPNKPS
- assay.explanation: Reaction Biology kinase activity inhibition
- Type: biochemical
- Design: purchased Reaction Biology (Malvern, PA)
- measurement.conditions: validation titration, 6.25 to 100 µM, Hotspot confirmation; read-out: IC50
property.label: IC50

Per the records, this molecule ( C/C=C(/C)C(=O)O[C@H]1Cc2cc3ccc(=O)oc3cc2OC1(C)C [DA, decursinol angelate] ) has IC50 equal to 22 µM
